All figures here come from ChEMBL document CHEMBL3046864.

Listing of entries alongside the reported EC50.
Tested on: Cercospora beticola
Assay: Fungicidal activity against Cercospora beticola assessed as inhibition of radial growth
Assay type: functional, organism-based
Give just the number in µg/mL; leave the unit off.

Task item: Name the recorded EC50 for Clc1ccc(C(CNCc2ccccc2)Cn2cncn2)c(Cl)c1 (stereo unspecified) .
Reply: 2.7

Task item: Please give the result for C#CCN(CC#C)CC(Cn1cncn1)c1ccc(Cl)cc1Cl (stereo unspecified) too.
Reply: 1.1

Task item: Param item: C/C=C/C(=O)NCC(Cn1cncn1)c1ccc(Cl)cc1Cl (stereo unspecified)
Reply: 60.5

Task item: Again, but for CC(C)(C)c1ccc(CN(Cc2ccc(C(C)(C)C)cc2)CC(Cn2cncn2)c2ccc(Cl)cc2Cl)cc1 (stereo unspecified)
Reply: 7

Task item: Moving on to the next compound: CN(C)CC(Cn1cncn1)c1ccc(Cl)cc1Cl (stereo unspecified)
Reply: 8

----------
System: Fusarium graminearum
Assay: Fungicidal activity against Fusarium graminearum assessed as inhibition of radial growth
Assay type: functional, organism-based
measured-endpoint: EC50

Below, each entry is followed by its recorded EC50 result.
[
  {
    "molecule": "C/C=C/C(=O)NCC(Cn1cncn1)c1ccc(Cl)cc1Cl (stereo unspecified)",
    "system-tested": "Fusarium graminearum",
    "measured-endpoint": "EC50",
    "observed-result": "> 100 µg/mL"
  },
  {
    "molecule": "C=CCN(CC(Cn1cncn1)c1ccc(Cl)cc1Cl)C1CC1 (stereo unspecified)",
    "system-tested": "Fusarium graminearum",
    "measured-endpoint": "EC50",
    "observed-result": "55 µg/mL"
  },
  {
    "molecule": "Clc1ccc(C(CN(Cc2ccccc2)Cc2ccccc2)Cn2cncn2)c(Cl)c1 (stereo unspecified)",
    "system-tested": "Fusarium graminearum",
    "measured-endpoint": "EC50",
    "observed-result": "> 100 µg/mL"
  },
  {
    "molecule": "Clc1ccc(C(CN(C/C=C/c2ccccc2)C/C=C/c2ccccc2)Cn2cncn2)c(Cl)c1 (stereo unspecified)",
    "system-tested": "Fusarium graminearum",
    "measured-endpoint": "EC50",
    "observed-result": "> 100 µg/mL"
  }
]

Please examine the following record next.
Task item: # input molecule: Clc1ccc(C(CNCc2ccccc2)Cn2cncn2)c(Cl)c1 (stereo unspecified) ; wanted: its EC50
Reply: > 100 µg/mL

----------
System: Cercospora beticola
Test: Fungicidal activity against Cercospora beticola assessed as inhibition of radial growth
Format: functional, organism-based
One threshold, 4 µg/mL, splits the recorded EC50 values: lower ones are Fulfilled, equal or higher ones are Not fulfilled.

Check out these entries, answers already filled in.
[
  {
    "compound": "C=CCNCC(Cn1cncn1)c1ccc(Cl)cc1Cl (stereo unspecified)",
    "system-tested": "Cercospora beticola",
    "assigned-label": "Not fulfilled"
  },
  {
    "compound": "Clc1ccc(C(CNC/C=C/c2ccccc2)Cn2cncn2)c(Cl)c1 (stereo unspecified)",
    "system-tested": "Cercospora beticola",
    "assigned-label": "Fulfilled"
  },
  {
    "compound": "NCC(Cn1cncn1)c1ccc(Cl)cc1Cl (stereo unspecified)",
    "system-tested": "Cercospora beticola",
    "assigned-label": "Not fulfilled"
  },
  {
    "compound": "CC(=O)NCC(Cn1cncn1)c1ccc(Cl)cc1Cl (stereo unspecified)",
    "system-tested": "Cercospora beticola",
    "assigned-label": "Not fulfilled"
  },
  {
    "compound": "C=CCN(CC(Cn1cncn1)c1ccc(Cl)cc1Cl)C1CC1 (stereo unspecified)",
    "system-tested": "Cercospora beticola",
    "assigned-label": "Fulfilled"
  },
  {
    "compound": "C=CCN(CC=C)CC(Cn1cncn1)c1ccc(Cl)cc1Cl (stereo unspecified)",
    "system-tested": "Cercospora beticola",
    "assigned-label": "Fulfilled"
  }
]

Task item: Please determine if Clc1ccc(C(CN(C/C=C/c2ccccc2)C/C=C/c2ccccc2)Cn2cncn2)c(Cl)c1 (stereo unspecified) is below 4 µg/mL in terms of EC50.
Reply: Not fulfilled

Task item: Try this compound next: Clc1ccc(C(CN(C2CC2)C2CC2)Cn2cncn2)c(Cl)c1 (stereo unspecified)
Reply: Fulfilled

Task item: Ok, now O=C(NCC(Cn1cncn1)c1ccc(Cl)cc1Cl)c1ccccc1 (stereo unspecified)
Reply: Fulfilled

----------
Test system: Fusarium graminearum
Experiment: Fungicidal activity against Fusarium graminearum assessed as inhibition of radial growth
Type: functional, organism-based
Below is a list of entries, each paired with its recorded EC50 value.

Here's what some known entries look like.
[
  {
    "molecule": "CN(C)CC(Cn1cncn1)c1ccc(Cl)cc1Cl (stereo unspecified)",
    "system-tested": "Fusarium graminearum",
    "observed-result": "> 100 µg/mL"
  },
  {
    "molecule": "CC(C)(C)c1ccc(CN(Cc2ccc(C(C)(C)C)cc2)CC(Cn2cncn2)c2ccc(Cl)cc2Cl)cc1 (stereo unspecified)",
    "system-tested": "Fusarium graminearum",
    "observed-result": "> 100 µg/mL"
  },
  {
    "molecule": "NCC(Cn1cncn1)c1ccc(Cl)cc1Cl (stereo unspecified)",
    "system-tested": "Fusarium graminearum",
    "observed-result": "> 100 µg/mL"
  },
  {
    "molecule": "Clc1ccc(C(CNC/C=C/c2ccccc2)Cn2cncn2)c(Cl)c1 (stereo unspecified)",
    "system-tested": "Fusarium graminearum",
    "observed-result": "26 µg/mL"
  },
  {
    "molecule": "C=CCNCC(Cn1cncn1)c1ccc(Cl)cc1Cl (stereo unspecified)",
    "system-tested": "Fusarium graminearum",
    "observed-result": "> 100 µg/mL"
  },
  {
    "molecule": "CC(=O)NCC(Cn1cncn1)c1ccc(Cl)cc1Cl (stereo unspecified)",
    "system-tested": "Fusarium graminearum",
    "observed-result": "> 100 µg/mL"
  },
  {
    "molecule": "C#CCNCC(Cn1cncn1)c1ccc(Cl)cc1Cl (stereo unspecified)",
    "system-tested": "Fusarium graminearum",
    "observed-result": "> 100 µg/mL"
  },
  {
    "molecule": "C#CCN(CC#C)CC(Cn1cncn1)c1ccc(Cl)cc1Cl (stereo unspecified)",
    "system-tested": "Fusarium graminearum",
    "observed-result": "9 µg/mL"
  }
]

Task item: I'd like to know its EC50. The molecule in question is C=CCN(CC=C)CC(Cn1cncn1)c1ccc(Cl)cc1Cl (stereo unspecified)
Reply: > 100 µg/mL

Task item: Also Clc1ccc(C(CN(C2CC2)C2CC2)Cn2cncn2)c(Cl)c1 (stereo unspecified) ?
Reply: 55 µg/mL

Task item: What about O=C(NCC(Cn1cncn1)c1ccc(Cl)cc1Cl)c1ccccc1 (stereo unspecified) ?
Reply: > 100 µg/mL
